Assay: qHTS for Stage-Specific Inhibitors of Vaccinia Orthopoxvirus: mCherry Reporter Primary qHTS; also: nearly all actives have a fitted effect of over 35% in size
Details: Vaccinia virus mCherry reporter infection, fluorescence; series mostly up to 36.5 µM
Among all 310,000 compounds or so, about 1,900 (0.61%) were called active. About 8% were inconclusive and are not listed. Calls follow the shape of the full dose curve; tested in A549 cells. What follows is part of a selection rich in actives, with near analogues and random picks from the rest.
Possible outcomes: active, inactive

compound: CC(=O)c1cccc(-c2cnc3c(NC=O)cc(-c4ccc(N(C)C)cc4)cn23)c1
qualitativeLabel: inactive

compound: CN1CCN(c2ccc3c(c2)OC[C@H](Cc2ccccc2)NS3(=O)=O)CC1
qualitativeLabel: inactive

compound: CCCCOCCCNC(=O)C[C@@H]1C[C@@]2(C(=O)OCC)CCCC=C2N(CCC2=CCCCC2)C1=O
qualitativeLabel: inactive

compound: OCCC#Cc1ccc(N2C(c3ccsc3)=Cc3ccc(F)cc3C2c2c[nH]c3ccccc23)cc1 (stereo unspecified)
qualitativeLabel: inactive

compound: CC(C)N1CCc2c(sc(NC(=O)Cc3ccccc3)c2C#N)C1
qualitativeLabel: inactive

compound: CCC(C)N1C(=O)S/C(=C/c2ccc(Sc3nc4ccccc4[nH]3)o2)C1=O (stereo unspecified)
qualitativeLabel: active

compound: CN(C)C1=C2C=CC=CC2/C(=C2/C=Cc3ccccc32)C=C1 (stereo unspecified)
qualitativeLabel: inactive

compound: COC(=O)[C@]12CCCCC=C1N(Cc1ccc(Cl)cc1Cl)C(=O)[C@H](CC(=O)NCc1cccc3ccccc13)C2
qualitativeLabel: inactive

compound: O=C(Nc1cc(Br)ccc1F)c1nc[nH]c1C(=O)NCc1ccccc1
qualitativeLabel: inactive

compound: CC(=O)c1ccc(-c2cnc3c(NC=O)cc(-c4cccc(NS(C)(=O)=O)c4)cn23)cc1
qualitativeLabel: active

compound: Cc1ccc(C(O)c2ncc(-c3ccccc3F)[nH]2)cc1F (stereo unspecified)
qualitativeLabel: inactive

compound: CCCC[C@@H]1CN=C(N)N1CCc1cccc(F)c1
qualitativeLabel: inactive

compound: CCC(c1nc2ccccc2[nH]1)n1c(=O)c(-c2cccs2)nc2ccccc21 (stereo unspecified)
qualitativeLabel: inactive

compound: CCc1cc(C(=O)N(CC)CC(=O)Nc2c(F)cccc2F)sc1C
qualitativeLabel: inactive

compound: Cc1ccc2nc(-c3ccccc3)c(CC3CCCCC3)n2c1
qualitativeLabel: inactive

compound: CCn1c(=O)c(=O)[nH]c2c(=O)oc3ccc(S(=O)(=O)Nc4ccc(OC)cc4)cc3c21
qualitativeLabel: inactive

compound: Cc1c(Cl)c([N+](=O)[O-])nn1CCCC(=O)Nc1cc(Cl)ccc1Cl
qualitativeLabel: inactive

compound: Nc1ccc(/C=C/c2ccnc3ccccc23)c([N+](=O)[O-])c1
qualitativeLabel: inactive

compound: CC(=O)c1cccc(-c2cnc3c(NC=O)cc(-c4cccc(C(=O)N(C)C)c4)cn23)c1
qualitativeLabel: inactive

compound: CCCC[C@@H]1CN=C(N)N1CCc1cc(C(F)(F)F)cc(C(F)(F)F)c1
qualitativeLabel: active

compound: CCCCOc1ccc(C(=O)NO)cc1
qualitativeLabel: inactive
